All figures here come from patent US8592161B2.

Please provide measured EC50 for the entries that follow.
# Test system: HIV-1/LAI strain selected with Comp 1 (100 nM, 195 days), protease S37N R41S K70E
# assay-summary: In vitro antiviral activity in acutely infected MT4 cells, selected strain
# Type: cell-based
# condition-notes: Human immunodeficiency virus 1, Table 2, strain S37N R41S K70E (Comp 1 100 nM, 195 days), read-out: median EC50
Please answer using a numeric value trailed by its unit.

IN: Value lookup for EC50; key = CC(C)c1nc(CN(C)C(=O)N[C@H](C(=O)N[C@@H](Cc2ccccc2)C[C@H](O)[C@H](Cc2ccccc2)NC(=O)OCc2cncs2)C(C)C)cs1
OUT: 14 nM

IN: Value lookup for EC50; key = Cc1cccc(C)c1OCC(=O)N[C@@H](Cc1ccccc1)[C@@H](O)C[C@H](Cc1ccccc1)NC(=O)[C@H](C(C)C)N1CCCNC1=O
OUT: 3.9 nM

IN: Value lookup for EC50; key = CC(C)(C)NC(=O)[C@@H]1CN(Cc2cccnc2)CCN1C[C@@H](O)C[C@@H](Cc1ccccc1)C(=O)N[C@H]1c2ccccc2C[C@H]1O
OUT: 9.1 nM

IN: Value lookup for EC50; key = CC(C)CN(C[C@@H](O)[C@H](Cc1ccccc1)NC(=O)O[C@H]1CO[C@H]2OCC[C@H]21)S(=O)(=O)c1ccc(N)cc1
OUT: 4.7 nM

IN: Value lookup for EC50; key = CC(C)(C)NC(=O)[C@@H]1C[C@@H]2CCCC[C@@H]2CN1C[C@@H](O)[C@H](Cc1ccccc1)NC(=O)[C@H](CC(N)=O)NC(=O)c1ccc2ccccc2n1
OUT: 0.9 nM

IN: Value lookup for EC50; key = Cc1c(O)cccc1C(=O)N[C@@H](CSc1ccccc1)[C@H](O)CN1C[C@H]2CCCC[C@H]2C[C@H]1C(=O)NC(C)(C)C
OUT: 9.5 nM

IN: Value lookup for EC50; key = CC(C)CN(C[C@@H](O)[C@H](Cc1ccccc1)NC(=O)O[C@H]1CCOC1)S(=O)(=O)c1ccc(N)cc1
OUT: 14 nM

* * *

# System: HIV-1/LAI
# assay-summary: In vitro antiviral activity in acutely infected MT4 cells, wild type
# Format: cell-based
# condition-notes: Human immunodeficiency virus 1, MT4, Table 1, wild-type HIV/LAI, read-out: median EC50
Please provide measured EC50 for the entries that follow.
Enter your answer as a number in nM; do not include the unit.

IN: Value lookup for EC50; key = CC(C)(C)NC(=O)[C@@H]1C[C@@H]2CCCC[C@@H]2CN1C[C@@H](O)[C@H](Cc1ccccc1)NC(=O)[C@H](CC(N)=O)NC(=O)c1ccc2ccccc2n1 [Saquinavir]
OUT: 7.8

IN: Value lookup for EC50; key = CC(C)c1nc(CN(C)C(=O)N[C@H](C(=O)N[C@@H](Cc2ccccc2)C[C@H](O)[C@H](Cc2ccccc2)NC(=O)OCc2cncs2)C(C)C)cs1 [Ritonavir]
OUT: 31

IN: Value lookup for EC50; key = Cc1cccc(C)c1OCC(=O)N[C@@H](Cc1ccccc1)[C@@H](O)C[C@H](Cc1ccccc1)NC(=O)[C@H](C(C)C)N1CCCNC1=O [Lopinavir]
OUT: 7.9

* * *

# Test system: HIV-1/LAI strain selected with NFV (9000 nM, 140 days), protease L10F D30N R41R/K K45I/K M46I V77I I84V N88D
# assay-summary: In vitro antiviral activity in acutely infected MT4 cells, selected strain
# Type: cell-based
# condition-notes: Human immunodeficiency virus 1, Table 5, strain L10F D30N R41R/K K45I/K M46I V77I I84V N88D (NFV 9000 nM, 140 days), read-out: median EC50
property-label: pEC50
Bear in mind: pEC50 is minus log10 of a mol/L concentration; give just that figure.

IN: Value lookup for pEC50; key = CC(C)(C)NC(=O)[C@@H]1CN(Cc2cccnc2)CCN1C[C@@H](O)C[C@@H](Cc1ccccc1)C(=O)N[C@H]1c2ccccc2C[C@H]1O
OUT: 7.55

IN: Value lookup for pEC50; key = CC(C)c1nc(CN(C)C(=O)N[C@H](C(=O)N[C@@H](Cc2ccccc2)C[C@H](O)[C@H](Cc2ccccc2)NC(=O)OCc2cncs2)C(C)C)cs1
OUT: 6.77

IN: Value lookup for pEC50; key = CC(C)CN(C[C@@H](O)[C@H](Cc1ccccc1)NC(=O)O[C@H]1CCOC1)S(=O)(=O)c1ccc(N)cc1
OUT: 6.72

IN: Value lookup for pEC50; key = Cc1cccc(C)c1OCC(=O)N[C@@H](Cc1ccccc1)[C@@H](O)C[C@H](Cc1ccccc1)NC(=O)[C@H](C(C)C)N1CCCNC1=O
OUT: 7.25

IN: Value lookup for pEC50; key = CC(C)(C)NC(=O)[C@@H]1C[C@@H]2CCCC[C@@H]2CN1C[C@@H](O)[C@H](Cc1ccccc1)NC(=O)[C@H](CC(N)=O)NC(=O)c1ccc2ccccc2n1
OUT: 7.47

IN: Value lookup for pEC50; key = Cc1c(O)cccc1C(=O)N[C@@H](CSc1ccccc1)[C@H](O)CN1C[C@H]2CCCC[C@H]2C[C@H]1C(=O)NC(C)(C)C
OUT: 5.17
